- Test system: 439559-082-T-J2-PDC spheroid viability
- Test description: Anticancer human tumor 439559-082-T-J2-PDC patient-derived colon adenocarcinoma cell line growth inhibition [POLQ]
- Test parameters: second compound 3.16 µM; first compound 1 µM; stronger effect = lower value; spheroids with HUVEC and MSC
Measured quantity: viability, T/C (%)
Respond numerically; units are % and should not be typed.

Enquiry: Look up viability, T/C for this molecule: COc1cc2cc(C(=O)CCC(=O)O)sc2cc1OC + Cc1cccc(N(C)C(=O)C2C(O)CCN2c2nc(C)cc(C(F)(F)F)c2C#N)c1
Return: 87.4

Enquiry: What measured viability, T/C goes with C=CC(=O)N1CCN(c2nc(=O)n(-c3c(C)ccnc3C(C)C)c3nc(-c4c(O)cccc4F)c(F)cc23)C(C)C1 (stereo unspecified) + COC1C(OC(N)=O)C(O)C(Oc2ccc3c(O)c(NC(=O)c4ccc(O)c(CC=C(C)C)c4)c(=O)oc3c2C)OC1(C)C ?
Return: 104

Enquiry: Record request: viability, T/C value, item COc1cccc(OCCCN)c1-c1cc(Nc2cnc(C#N)cn2)n[nH]1 + Cc1cccc(N(C)C(=O)C2C(O)CCN2c2nc(C)cc(C(F)(F)F)c2C#N)c1
Return: 19.4

Enquiry: Endpoint output: viability, T/C of O=c1[nH]cc(F)c(=O)[nH]1 + COC1C(OC(N)=O)C(O)C(Oc2ccc3c(O)c(NC(=O)c4ccc(O)c(CC=C(C)C)c4)c(=O)oc3c2C)OC1(C)C . Value?
Return: 73.2

Enquiry: Please report the recorded viability, T/C for CCCS(=O)(=O)Nc1ccc(F)c(C(=O)c2c[nH]c3ncc(-c4ccc(Cl)cc4)cc23)c1F + Nc1ccc(C#CCN(C(=O)Cc2ncc(C(F)(F)F)cc2C(F)(F)F)c2ccc(F)cc2)nn1 .
Return: 99.6

Enquiry: # lookup: viability, T/C of CNCc1ccc(-c2[nH]c3cc(F)cc4c3c2CCNC4=O)cc1 + Cc1cccc(N(C)C(=O)C2C(O)CCN2c2nc(C)cc(C(F)(F)F)c2C#N)c1
Return: 99.1

###

Exercise: state measured viability, T/C for each of the compounds provided.
- Tested on: 439559-082-T-J2-PDC spheroid viability
- Test description: Anticancer human tumor 439559-082-T-J2-PDC cell line growth inhibition [POLQ];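 further: spheroids exposed to compounds for seven days before readout; 100% = DMSO vehicle control viability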
- Test parameters: second compound 3.16 µM; first compound 1 µM; stronger effect = lower value; spheroids with HUVEC and MSC
Only the number, expressed in %, is required.

Enquiry: What viability, T/C value was documented for this compound, CCc1cc2c(N3CCc4c(cc(Cn5ccnc5)cc4-c4cn(C)nc4C(F)(F)F)C3=O)cc(C)nc2c(OC)n1 + Cc1cccc(N(C)C(=O)C2C(O)CCN2c2nc(C)cc(C(F)(F)F)c2C#N)c1 ?
Return: 92.2

Enquiry: What value of viability, T/C has been recorded for this entry: CCc1cc2c(N3CCc4c(cc(Cn5ccnc5)cc4-c4cn(C)nc4C(F)(F)F)C3=O)ccnc2c(OC)n1 + Cc1cccc(N(C)C(=O)C2C(O)CCN2c2nc(C)cc(C(F)(F)F)c2C#N)c1
Return: 92.2

Enquiry: Using the record for CCc1cc2c(N3CCc4c(cc(Cn5ccnc5)cc4-c4cn(C)nc4C(F)(F)F)C3=O)ccnc2c(OC)n1 + Nc1ccc(C#CCN(C(=O)Cc2ncc(C(F)(F)F)cc2C(F)(F)F)c2ccc(F)cc2)nn1 , report its viability, T/C.
Return: 82.7

Enquiry: Bench note: what viability, T/C did C=CCn1c(=O)c2cnc(Nc3ccc(N4CCN(C)CC4)cc3)nc2n1-c1cccc(C(C)(C)O)n1 + Nc1ccc(C#CCN(C(=O)Cc2ncc(C(F)(F)F)cc2C(F)(F)F)c2ccc(F)cc2)nn1 show?
Return: 79.3

Enquiry: What measured viability, T/C goes with COc1cccc(OCCCN)c1-c1cc(Nc2cnc(C#N)cn2)n[nH]1 + COC1C(OC(N)=O)C(O)C(Oc2ccc3c(O)c(NC(=O)c4ccc(O)c(CC=C(C)C)c4)c(=O)oc3c2C)OC1(C)C ?
Return: 18.2
